experiment: GHB average pharmacokinetic parameters after oral administration of different doses (immediate release) to 8 healthy volunteers; type: in vivo, human (healthy volunteers); settings: human, plasma, po; about; summary of table 1 and FIG. 1; read-out: maximum peak after the administration
Readout label: Tmax

Task: // lookup Tmax for O=C(O)CCCO
Output: 30 to 45 min

---

experiment: GHB average pharmacokinetic parameters after oral administration of different doses (immediate release) to 8 healthy volunteers; type: in vivo, human (healthy volunteers); conditions: human, plasma; oral 50 mg/kg; average value (range); read-out: tmax (absorption time to the peak) (converted)
Readout label: Tmax (min)
Give just the numeric value; min need not be written.

Task: Data request, read-out Tmax, for O=C(O)CCCO [GHB, gamma hydroxy butyric acid]
Output: 45

---

experiment: GHB average pharmacokinetic parameters after oral administration of different doses (immediate release) to 8 healthy volunteers; assay type: in vivo, human (healthy volunteers); conditions: human, plasma; oral 25 mg/kg; read-out: t^1/2 z (final halflife time)
Readout label: half-life (min)
Answer format: numeric, min implied, no suffix.

Task: Reported half-life, molecule O=C(O)CCCO [GHB, gamma hydroxy butyric acid] : ____
Output: 22

---

experiment: GHB average pharmacokinetic parameters after oral administration of different doses (immediate release) to 8 healthy volunteers; type: in vivo, human (healthy volunteers); details: human, plasma, po; summary of table 1 and FIG. 1; read-out: half life
Readout label: half-life

Task: Query: half-life; subject: O=C(O)CCCO
Output: 20 to 25 min

---

test: GHB average pharmacokinetic parameters after oral administration of different doses (immediate release) to 8 healthy volunteers; assay type: in vivo, human (healthy volunteers); conditions: human, plasma; oral 50 mg/kg; read-out: t^1/2 z (final halflife time)
Readout label: half-life (min)
Please reply with the bare figure in min and do not write the unit itself.

Task: Fill in: half-life of O=C(O)CCCO [GHB, gamma hydroxy butyric acid] is ___
Output: 23

---

Assay: GHB average pharmacokinetic parameters after oral administration of different doses (immediate release) to 8 healthy volunteers
Format: in vivo, human (healthy volunteers)
Conditions: human, plasma; oral 50 mg/kg; read-out: CLo (oral clearance)
Description: GHB Average pharmacokinetic parameters after administration of different doses to 8 healthy volunteers
Readout label: CL/F
Entry format: amount then unit.

Task: // returns reported CL/F for input O=C(O)CCCO [GHB, gamma hydroxy butyric acid]
Output: 7 mL/min/kg

---

experiment: GHB average pharmacokinetic parameters after oral administration of different doses (immediate release) to 8 healthy volunteers; assay type: in vivo, human (healthy volunteers); settings: human, plasma; oral 25 mg/kg; read-out: MRT (average residence time) (converted)
Readout label: MRT

Task: Any idea what MRT was measured for O=C(O)CCCO [GHB, gamma hydroxy butyric acid] ?
Output: 53 min

---

assay: GHB average pharmacokinetic parameters after oral administration of different doses (immediate release) to 8 healthy volunteers; assay type: in vivo, human (healthy volunteers); settings: human, plasma; oral 50 mg/kg; read-out: MRT (average residence time) (converted)
Readout label: MRT (h)
Kindly provide the numeric value in h only, without the unit symbol.

Task: Please report the recorded MRT for O=C(O)CCCO [GHB, gamma hydroxy butyric acid] .
Output: 1.17

---

assay: GHB average pharmacokinetic parameters after oral administration of different doses (immediate release) to 8 healthy volunteers; assay type: in vivo, human (healthy volunteers); conditions: human, plasma; oral 25 mg/kg; average value (range); read-out: tmax (absorption time to the peak) (converted)
Readout label: Tmax (min)
Report the figure in min without appending any unit label.

Task: Item under review: O=C(O)CCCO [GHB, gamma hydroxy butyric acid] . Reported Tmax?
Output: 30

Where do the numbers come from? From patent US5594030A.
